# tested.system: human HSL (Homo sapiens)
# Construct: overlapping PCR to generate a full length human HSL ORF with a 3′-His6 tag; His6 (C)
# Sequence (Q05469 whole entry): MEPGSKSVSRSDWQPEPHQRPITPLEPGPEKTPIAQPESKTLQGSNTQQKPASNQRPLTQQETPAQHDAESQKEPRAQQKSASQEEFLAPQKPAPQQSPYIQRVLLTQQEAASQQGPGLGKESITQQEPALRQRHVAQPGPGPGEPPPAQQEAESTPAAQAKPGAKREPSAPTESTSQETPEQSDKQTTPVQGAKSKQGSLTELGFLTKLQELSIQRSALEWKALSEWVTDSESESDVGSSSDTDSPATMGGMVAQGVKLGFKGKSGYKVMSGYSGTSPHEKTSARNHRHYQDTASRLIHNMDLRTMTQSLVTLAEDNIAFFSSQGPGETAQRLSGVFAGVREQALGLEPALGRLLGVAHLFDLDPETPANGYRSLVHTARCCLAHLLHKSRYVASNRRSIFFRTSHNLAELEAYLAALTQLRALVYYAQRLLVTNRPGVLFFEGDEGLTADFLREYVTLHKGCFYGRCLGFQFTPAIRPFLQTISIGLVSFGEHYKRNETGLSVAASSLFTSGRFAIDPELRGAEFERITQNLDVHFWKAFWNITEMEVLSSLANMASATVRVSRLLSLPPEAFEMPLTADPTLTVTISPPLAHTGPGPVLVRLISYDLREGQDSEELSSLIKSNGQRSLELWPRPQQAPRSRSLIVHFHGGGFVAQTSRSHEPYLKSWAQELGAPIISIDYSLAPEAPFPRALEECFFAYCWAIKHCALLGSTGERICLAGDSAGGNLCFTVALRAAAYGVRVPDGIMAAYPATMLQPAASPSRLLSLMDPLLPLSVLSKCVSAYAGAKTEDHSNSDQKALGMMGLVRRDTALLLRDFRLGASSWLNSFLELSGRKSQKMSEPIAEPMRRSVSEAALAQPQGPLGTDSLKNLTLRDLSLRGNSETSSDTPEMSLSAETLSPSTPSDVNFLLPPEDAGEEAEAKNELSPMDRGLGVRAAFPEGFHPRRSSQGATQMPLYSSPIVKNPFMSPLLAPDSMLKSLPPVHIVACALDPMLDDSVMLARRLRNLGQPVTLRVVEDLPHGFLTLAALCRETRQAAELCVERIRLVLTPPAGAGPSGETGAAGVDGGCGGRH
# protocol: Human hormone-sensitive lipase (HSL) enzyme inhibition assay (colorimetric, DMPT substrate)
# test.context: human full length HSL-His6; 2,3-dimercapto-1-propanol tributyrate substrate; 37° C., 20 minutes; read-out: HSL hum IC50
Each item that follows carries a reported pIC50.
Quick note: pIC50 means taking -log10 of the concentration in moles per liter.

Observe how each entry below is paired with its result.
CCN(C(=O)C1CCN(S(=O)(=O)c2ccc(C)cc2)CC1)c1ccc(OC(C)C(F)(F)F)cc1 (racemic)	5.52
Cc1ccc(S(=O)(=O)N2CCC(CO)(C(=O)Nc3ccc(OC(C)C(F)(F)F)cc3)CC2)cc1 (racemic)	5.85
CC(Oc1ccc(NC(=O)C2CCN(S(=O)(=O)c3ccccc3Cl)CC2)cc1)C(F)(F)F (racemic)	7.15
Cc1ccc(S(=O)(=O)N2CCC(C(=O)Nc3ccc(OC(F)F)cc3)CC2)cc1	6.92
Cc1ccc(S(=O)(=O)N2CCC(C(=O)NCC3(c4ccc(Cl)cc4)CC3)CC2)cc1	5.83

Fill in pIC50 for record `Cc1ccc(S(=O)(=O)N2CCC(C)(C(=O)Nc3ccc(OC(F)(F)F)cc3)CC2)cc1` 6.32

Fill in pIC50 for record Cc1ccc(S(=O)(=O)N2CCC(C(=O)Nc3ccc(OC(C)C(F)(F)F)nc3)CC2)cc1 (racemic) 6.92

Fill in pIC50 for record `O=C(Nc1ccc(OC(F)(F)F)cc1)C1CCN(S(=O)(=O)N2CCOCC2)CC1` 6.22

----------
Each item that follows carries a reported pIC50.
# tested.system: human HSL (Homo sapiens)
# Construct: overlapping PCR to generate a full length human HSL ORF with a 3′-His6 tag; His6 (C)
# protocol: Human hormone-sensitive lipase (HSL) enzyme inhibition assay (colorimetric, DMPT substrate)
# test.context: human full length HSL-His6; 2,3-dimercapto-1-propanol tributyrate substrate; 37° C., 20 minutes; read-out: HSL hum IC50
Quick note: pIC50 means taking -log10 of the concentration in moles per liter.

Observe how each entry below is paired with its result.
COc1ccc(S(=O)(=O)N2CCC(F)(C(=O)Nc3ccc(OC(F)(F)F)cc3)CC2)cc1	6.55
Cc1ccc(S(=O)(=O)N2CCC(C(=O)Nc3ccc(CCO)cc3)CC2)cc1	6.15
CN(C(=O)[C@H]1CCN(S(=O)(=O)c2ccccc2Cl)[C@H](CO)C1)c1ccc(OC(F)(F)F)cc1 (racemic)	7.10
Cc1ccc(S(=O)(=O)N2CCC(C(=O)Nc3ccc(OC(C)C4CC4)cc3)CC2)cc1 (racemic)	7.05
Cc1ccc(S(=O)(=O)N2CCC(F)(C(=O)Nc3ccc(OC(C)C(F)(F)F)cc3)CC2)cc1 (racemic)	6.04
Cc1ccc(S(=O)(=O)N2CCC(C(=O)Nc3ccc(OCC4CC4)cc3)CC2)cc1	6.77

Fill in pIC50 for record `CC(C)(C)CCC(=O)N1CCC(C(=O)Nc2ccc(OC(F)(F)F)cc2)CC1` 6.59

Fill in pIC50 for record O=C(Nc1ccc(OC(F)(F)F)cc1)[C@H]1CCN(S(=O)(=O)c2ccccc2Cl)[C@H](CO)C1 (racemic) 7.30

Fill in pIC50 for record `CC(C)c1ccc(NC(=O)C2CCN(C(=O)CCC3CC3)CC2)cc1` 6.46

Fill in pIC50 for record `O=C(NCC1(c2ccc(Cl)cc2)CC1)C1CCN(S(=O)(=O)c2ccccc2Cl)CC1` 6.19

Fill in pIC50 for record `Cc1ccc(S(=O)(=O)N2CCC(C(=O)Nc3ccc(OC(F)(F)F)cc3)CC2)cc1` 7.10

Fill in pIC50 for record Cc1ccc(S(=O)(=O)N2CCC(C(=O)Nc3ccc(OC(C)C(F)(F)F)cc3)CC2)cc1 (racemic) 7.05

Fill in pIC50 for record `Cc1ccc(S(=O)(=O)N2CCC(C(=O)Nc3ccc(OCC(F)(F)F)cc3)CC2)cc1` 6.80
